Below, each entry is listed alongside its reported Emission λmax.
# study-conditions: pyrazoline bound to SilMA, derived from the named DAT, pH 3
Give the value in nm but do not write nm after it.

Solved entries:
compound	Emission λmax, nm
CCOC(=O)c1ccc(-n2nnc(-c3ccc(C(=O)O)cc3)n2)cc1 [DAT-2]	460
O=C(O)c1ccc(-c2nnn(-c3ccc(S(=O)(=O)O)cc3)n2)cc1 [DAT-3]	490
Oc1ccc(-c2nnn(-c3ccccc3)n2)cc1 [DAT-10]	435
O=C(O)c1ccc(-c2nnn(-c3ccc(B(O)O)cc3)n2)cc1 [DAT-5]	505
O=C(O)c1ccc(-c2nnn(-c3ccc(O)cc3)n2)cc1 [DAT-4]	530

Consider now this further compound.
Name the reported Emission λmax value associated with the compound Nc1cccc(-c2nnn(-c3ccccc3)n2)c1 [DAT-9, 5-(3-aminophenyl)-2-phenyl-2H-tetrazole] 455
